Catalogue of GI50 readings, one per entry.
System: OVCAR-5
ASSAY_DETAILS: NCI tumour cell line growth inhibition, 48 h
Calls of active or inactive are those of the source. Cut-off read from the data, not from the text of the source: active = GI50 up to about 1.1 µM and inactive = higher.

Use these answered entries as a reference point.
1) CC(=O)C1=CCC2c3[nH]c4ccccc4c3CCN2C1 (centres undefined)	> 100 µM (inactive)
2) CO/N=C(\C(=O)Nc1cncs1)c1csc(NC(c2ccccc2)(c2ccccc2)c2ccccc2)n1	> 10 µM (inactive)
3) C[C@]12CC[C@@H]3c4cc(C=O)c(OCc5ccccc5)cc4CC[C@H]3[C@@H]1CCC2OCc1ccccc1 (some centres undefined)	> 100 µM (inactive)
4) COc1cc2c(cc1OC)[C@@](C)(C(O)C(O)C(C)(C)O)NCC2 (some centres undefined)	> 100 µM (inactive)
5) C/C(=N\Nc1ccc([N+](=O)[O-])cc1[N+](=O)[O-])c1sc(-n2nc(-c3ccccc3)cc2-c2ccccc2)nc1C	> 100 µM (inactive)
6) O=C(c1cccc2cc(O)ccc12)c1cn(CCN2CCOCC2)c2ccccc12	29.5 µM (inactive)
7) O=C1NC(=S)NC(=O)C1=C(O)Nc1ccccc1	47.2 µM (inactive)
8) Cc1[nH]c2ccccc2c1C1Cc2ccccc2N1C(=O)/C=C/C(=O)O (centres undefined)	> 100 µM (inactive)

Ask: Lab note: need GI50 for CCN(C(=O)N[C@H](C(=O)N[C@@H](CSC)C(=O)N[C@@H](C)C(=O)OC)C(C)C)c1ccccc1 on OVCAR-5, anyone have it?
Result: 15.5 µM (inactive)
